Biological target: Myt1 kinase (recombinant PMYT-1) (Homo sapiens)
Construct: full length PMYT-1 was expressed by baculovirus in insect cells; purchased Invitrogen A30984; host or cells: insect cells (baculovirus)
Sequence (Q99640 1-499): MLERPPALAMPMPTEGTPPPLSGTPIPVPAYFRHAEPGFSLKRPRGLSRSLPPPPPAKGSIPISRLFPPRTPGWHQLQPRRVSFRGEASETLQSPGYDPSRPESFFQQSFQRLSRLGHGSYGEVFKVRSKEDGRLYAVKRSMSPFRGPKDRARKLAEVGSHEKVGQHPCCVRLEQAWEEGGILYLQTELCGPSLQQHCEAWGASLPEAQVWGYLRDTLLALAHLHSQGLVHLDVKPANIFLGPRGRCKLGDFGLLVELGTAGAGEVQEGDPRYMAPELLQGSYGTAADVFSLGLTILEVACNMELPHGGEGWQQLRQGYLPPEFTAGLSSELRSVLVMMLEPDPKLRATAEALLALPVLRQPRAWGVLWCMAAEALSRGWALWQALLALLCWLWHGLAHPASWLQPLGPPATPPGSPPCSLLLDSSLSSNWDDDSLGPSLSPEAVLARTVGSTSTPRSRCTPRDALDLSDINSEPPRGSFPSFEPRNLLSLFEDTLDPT
Experiment: Myt1 kinase binding assay (LanthaScreen Eu Kinase Binding Assay)
Conditions: 3 nM tracer 178, 2.5 nM PMYT-1, 1 nM Eu-labeled antibody; read-out: Myt1 kinase Binding IC50
For each entry below, report its IC50 value.

C=CCn1c(=O)c2cnc(Nc3ccc(OCCF)cc3)nc2n1-c1cccc(OC2CCNCC2)n1: 20 to 100 nM
C=CCn1c(=O)c2cnc(Nc3ccc(Cl)c(Cl)c3)nc2n1-c1cccc(NC2CCNCC2)n1: 100 to 500 nM
CCn1c(=O)c2cnc(Nc3cccc(-c4cncnc4)c3)nc2n1-c1cccc(OC2CCN(C)CC2)n1: 100 to 500 nM
C=CCn1c(=O)c2cnc(Nc3ccc(C#N)c(C)c3)nc2n1-c1cccc(OC2CCN(C)CC2)n1: 20 to 100 nM
C=CCn1c(=O)c2cnc(Nc3ccc4c(cnn4C)c3)nc2n1-c1cccc(O[C@H]2CCCN(C)C2)n1: 100 to 500 nM
C=CCn1c(=O)c2cnc(Nc3cccc(-n4cccn4)c3)nc2n1-c1cccc(OC2CCN(C)CC2)n1: 20 to 100 nM
C=CCn1c(=O)c2cnc(Nc3ccc(F)cc3)nc2n1-c1cccc(OC2CCCNCC2)n1 (single isomer, unassigned) [Compound 344]: > 500 nM
C=CCn1c(=O)c2cnc(Nc3ccc(F)cc3)nc2n1-c1cccc(NC2CCNCC2)n1: 100 to 500 nM

Please look at the items below and tell me IC50 for each one, in order.
1. C=CCn1c(=O)c2cnc(Nc3ccc(OCC(C)C)cc3)nc2n1-c1cccc(OC2CCNCC2)n1
2. C=CCn1c(=O)c2cnc(Nc3ccc(C(F)(F)F)cc3)nc2n1-c1cccc(NC2CCNCC2)n1
3. C=CCn1c(=O)c2cnc(Nc3ccnc(C)c3)nc2n1-c1cccc(OC2CCN(C)CC2)n1

1: < 20 nM; 2: 100 to 500 nM; 3: 20 to 100 nM

Please look at the items below and tell me IC50 for each one, in order.
1. C=CCn1c(=O)c2cnc(Nc3ccc4cn(C)nc4c3)nc2n1-c1cccc(OC2CCN(C)CC2)n1
2. C=CCn1c(=O)c2cnc(Nc3ccc(F)cc3)nc2n1-c1cccc(O[C@H]2CCCNCC2)n1 (single isomer, unassigned)
3. C=CCn1c(=O)c2cnc(Nc3ccc4c(cnn4C)c3)nc2n1-c1cccc(NC2CCN(C)CC2)c1

["20 to 100 nM", "20 to 100 nM", "> 500 nM"]

Where do the numbers come from? From patent US20260364080A1.
